The entries below come with measured IC50 values attached.
Tgt: Src kinase (Homo sapiens)
Construct: purchased Upstate Bioteolnology (sic; Upstate Biotechnology); later HMR stock 27597-019E1 #14-117
Sequence (P12931 whole entry): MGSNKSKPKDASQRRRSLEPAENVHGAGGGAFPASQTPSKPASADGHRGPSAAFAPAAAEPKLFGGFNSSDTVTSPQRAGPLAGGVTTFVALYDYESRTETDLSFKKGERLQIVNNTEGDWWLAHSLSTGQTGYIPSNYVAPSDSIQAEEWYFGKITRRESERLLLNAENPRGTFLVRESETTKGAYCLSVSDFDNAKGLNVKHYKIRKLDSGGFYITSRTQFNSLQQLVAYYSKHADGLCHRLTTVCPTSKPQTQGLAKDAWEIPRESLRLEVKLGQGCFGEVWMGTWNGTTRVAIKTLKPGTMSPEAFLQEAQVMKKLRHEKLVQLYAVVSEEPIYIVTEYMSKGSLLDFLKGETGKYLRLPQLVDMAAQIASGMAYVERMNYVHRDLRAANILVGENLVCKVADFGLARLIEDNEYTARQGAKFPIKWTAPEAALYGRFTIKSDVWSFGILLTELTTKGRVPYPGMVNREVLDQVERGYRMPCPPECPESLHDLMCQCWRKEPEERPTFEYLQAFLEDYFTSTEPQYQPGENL
Experiment Notes: Phosphorylation assay of Src kinase inhibitors (radiometric, 96 well filter plate)
Type: biochemical
Test Parameters: duplicates, tested in the range of 400-0.098 µM; 10 µM peptide substrate (FIYGAFKKKKNH2), 5 µM unlabeled ATP, room temperature 30 min; read-out: IC50
Give the value in µM but do not write µM after it.

Known IC50 results, listed for orientation:
What reported IC50 corresponds to N=C(N)NCCCC(NC(=O)c1cc2ccccc2cc1OCCCCNC(=O)[C@@H](N)Cc1ccc(O)cc1)C(N)=O (stereo partly shown) [Example 11] on Src kinase (Homo sapiens)?
113

What reported IC50 corresponds to NC(=O)CNC(=O)c1cc2ccccc2cc1OCCCCCNC(=O)[C@@H](N)Cc1ccc(O)cc1 [Example 94] on Src kinase (Homo sapiens)?
6.6

What reported IC50 corresponds to CCC(C)[C@H](N)C(=O)NC(Cc1ccc(O)cc1)C(=O)NCCCCOc1cc2ccccc2cc1C(=O)NCC(N)=O (stereo partly shown) [Example 19] on Src kinase (Homo sapiens)?
12

***
What reported IC50 corresponds to Cc1nc(-c2ccc(CC(N)C(=O)NCCCCOc3cc4ccccc4cc3C(=O)NCC(N)=O)cc2)no1 (stereo in doubt) [Compound 135] on Src kinase (Homo sapiens)?
29

====

Tgt: Src kinase (Homo sapiens)
Construct: purchased Upstate Bioteolnology (sic; Upstate Biotechnology); later HMR stock 27597-019E1 #14-117
Experiment Notes: Phosphorylation assay of Src kinase inhibitors (radiometric, 96 well filter plate)
Assay type: biochemical
Test Parameters: duplicates, tested in the range of 400-0.098 µM; 10 µM peptide substrate (FIYGAFKKKKNH2), 5 µM unlabeled ATP, room temperature 30 min; read-out: IC50
pIC50: −log10 of the molar value.
Note to self: values exactly at 5 are Yes. So pIC50 at or above 5 is Yes, below is No.

Worked examples follow.
Record NC(=O)CNC(=O)c1cc2ccccc2cc1OCCCCNC(=O)[C@@H](N)Cc1ccc([N+](=O)[O-])cc1 [Example 45] ; criterion: pIC50 no lower than 5. Met?
Yes

Record NCC(=O)N[C@@H](Cc1ccc(O)cc1)C(=O)NCCCCOc1cc2ccccc2cc1C(=O)NCC(N)=O [Example 74] ; criterion: pIC50 no lower than 5. Met?
No

Record CNC(=O)[C@@H](Cc1ccc(C(=O)OC)cc1)C(=O)NCCCCOc1cc2ccccc2cc1C(=O)NCC(N)=O [Example 147] ; criterion: pIC50 no lower than 5. Met?
No

Record NC(=O)CNC(=O)c1cc2ccccc2cc1OCCCCN1CCNC(Cc2ccccc2)C1=O (stereo in doubt) [Example 28] ; criterion: pIC50 no lower than 5. Met?
No

***
Record NC(=O)C(Cc1ccccc1)NC(=O)c1cc2ccccc2cc1OCCCCNC(=O)[C@@H](N)Cc1ccc(O)cc1 (stereo partly shown) [Example 10] ; criterion: pIC50 no lower than 5. Met?
No

Record N[C@@H](Cc1ccc(O)cc1)C(=O)NCCCCOc1ccc2ccccc2c1C(=O)NCC(=O)NCCCO [Example 117] ; criterion: pIC50 no lower than 5. Met?
No

Record NC(=O)CNC(=O)[C@@H](Cc1cccc2ccccc12)NCCCCCNC(=O)[C@H](N)Cc1csc2ccccc12 [Example 82] ; criterion: pIC50 no lower than 5. Met?
Yes
